Just for reference, the supplement of paper PMC10567573 is where these values come from.

B1: TOR1AIP2 (parent)
chain: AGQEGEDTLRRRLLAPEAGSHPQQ

Variants of: B1
Assay: protein stability index of a GFP-peptide fusion (GPS, HEK-293T) (PSI 1-6); higher = more stable;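 also: lentivirally expressed fusions sorted by FACS into six bins by GFP to DsRed ratio, PSI derived from sequencing read proportions per bin multiplied by bin number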
Conditions: c terminus: a fixed tail appended
Could you label it 1.0 if measured protein stability index is 4 or higher, and 0.0 otherwise?

Take a look at these entries with their results.
VARIANT CODE | CATEGORY LABEL
A15L | 1.0
P16E | 1.0
A1P | 1.0
R11K | 0.0
Q3P | 0.0
Q24D | 0.0
P16H | 1.0
L14D | 1.0

stdin: Could you please find out whether L14I has protein stability index that meets 4 or exceeds it?
stdout: 1.0

stdin: Proceed to Q3E
stdout: 0.0
